target: T1, biotinylated monovalent EpCAM-Fc (human EpCAM ECD-Fc knob avi-his paired with Fc hole) (human, UniProt P01857 104-328 = IgG part, biotin on the avi tag (BirA co-expression)); assay: SPR ProteOn XPR36 off-rate, biotinylated monovalent EpCAM-Fc on NLC chip, 50 nM supernatant
T1 construct: also called monovalent EpCAM-Fc construct; huEPCAM-Fc-knob (avi-His) + Fc hole (wt)
Parameter Measured: koff (s⁻¹)
Provide the reading as a plain figure in s⁻¹.

Below, 2 binders whose answers are already recorded.
{"Binder": "Monovalent EpCAM (GG07_VH x GG03_VL) (antibody, IgG1, V domains shown, one-armed hu IgG1 PG-LALA, VH/VL-crossed Fab on Fc hole plus empty Fc knob; from supernatant) VH: QVQLVQSGSELKKPGASVKVSCKASGYTFTNYGMNWVRQAPGQGLEWMGWINTYTGESTYAQGFTGRFVFSLDTSVSTAYLQISSLKAEDTAVYFCARFARSGDYWGQGTLVTVSS VL: EIVLTQSPGTLSLSPGERATLSCRASQSLLHSNGITYLYWYQQKPGQAPRLLIYQMSNRATGIPDRFSGSGSGTDFTLTISRLEPEDFAVYYCAQNLEIPRTFGQGTKLEIK", "Result": 0.00285}
{"Binder": "Monovalent EpCAM (GG01_VH x GG06_VL) (antibody, IgG1, V domains shown, one-armed hu IgG1 PG-LALA, VH/VL-crossed Fab on Fc hole plus empty Fc knob; from supernatant) VH: QVQLVQSGSELKKPGASVKVSCKASGYTFTNYGMNWVRQAPGQGLEWMGWINTYTGESTYAQGFTGRFVFSLDTSVSTAYLQISSLKAEDTAVYFCARFAIKGDYWGQGTLVTVSS VL: DIQMTQSPSSLSASVGDRVTITCRASQSILHSQGITYLYWYQQKPGKAPKLLIYQMSNLQSGVPSRFSGSGSGTDFTLTISSLQPEDFATYYCAQNLEIPRTFGQGTKLEIK", "Result": 0.00412}

Now look at this one.
Q) If you can, please state the reported koff value of Monovalent EpCAM (GG06_VH x GG02_VL) (antibody, IgG1, V domains shown, one-armed hu IgG1 PG-LALA, VH/VL-crossed Fab on Fc hole plus empty Fc knob; from supernatant) VH: QVQLVQSGSELKKPGASVKVSCKASGYTFTNYGMNWVRQAPGQGLEWMGWINTYTGQSTYAQGFTGRFVFSLDTSVSTAYLQISSLKAEDTAVYFCARFAIKGDYWGQGTLVTVSS VL: DIVMTQSPDSLAVSLGERATINCKSSQSLLHSNGITYLYWYQQKPGQPPKLLIYQASTRESGVPDRFSGSGSGTDFTLTISSLQAEDVAVYYCAQNLEIPRTFGQGTKLEIK .
A) 0.00382
